Test system: TK-10 renal
EXPERIMENT DESCRIPTION: NCI tumour cell line growth inhibition, 48 h
RECORDED ENDPOINT: GI50

>  <MOLECULE>
Cc1cccc2c1NC(=O)[C@@H](NC(=O)[C@H](CCC(F)(F)F)[C@H](CCC(F)(F)F)C(N)=O)N=C2c1cccc(F)c1

>  <SUBJECT OF TEST>
TK-10 renal

>  <RECORDED ENDPOINT>
GI50

>  <VALUE MEASURED>
34.7 µM

$$$$
>  <MOLECULE>
Cc1cn2c(/C=N/NC3=NCCN3)c(-c3ccc(Cl)c([N+](=O)[O-])c3)nc2s1

>  <SUBJECT OF TEST>
TK-10 renal

>  <RECORDED ENDPOINT>
GI50

>  <VALUE MEASURED>
1.05 µM

$$$$
>  <MOLECULE>
CCOC(=O)c1c2c(n(Cc3ccccc3)c1C)-c1nc[nH]c1C(=O)C2=O

>  <SUBJECT OF TEST>
TK-10 renal

>  <RECORDED ENDPOINT>
GI50

>  <VALUE MEASURED>
16.2 µM

$$$$
>  <MOLECULE>
Cc1ccc([I+]c2ccc(C)cc2)cc1

>  <SUBJECT OF TEST>
TK-10 renal

>  <RECORDED ENDPOINT>
GI50

>  <VALUE MEASURED>
6.63 µM

$$$$
>  <MOLECULE>
COC(=O)Nc1nc2ccc(C(=O)C3CC3)cc2[nH]1

>  <SUBJECT OF TEST>
TK-10 renal

>  <RECORDED ENDPOINT>
GI50

>  <VALUE MEASURED>
1.38 µM

$$$$
>  <MOLECULE>
CN(CCNc1ccc(C(=N)N)cc1)c1ccc(C(=N)N)cc1

>  <SUBJECT OF TEST>
TK-10 renal

>  <RECORDED ENDPOINT>
GI50

>  <VALUE MEASURED>
53.4 µM

$$$$
>  <MOLECULE>
O=C(CSc1nc2ccc([N+](=O)[O-])cc2[nH]1)Nc1ccc([N+](=O)[O-])cc1

>  <SUBJECT OF TEST>
TK-10 renal

>  <RECORDED ENDPOINT>
GI50

>  <VALUE MEASURED>
3.47 µM

$$$$
>  <MOLECULE>
COc1ccc(/C=C/C(=O)c2ccc(B(O)O)cc2)cc1O

>  <SUBJECT OF TEST>
TK-10 renal

>  <RECORDED ENDPOINT>
GI50

>  <VALUE MEASURED>
30.4 µM

$$$$
>  <MOLECULE>
O=C(NCCCNc1cc(-c2cn(-c3ccccc3)nc2-c2cccc(O)c2)ccn1)c1ccc(F)cc1

>  <SUBJECT OF TEST>
TK-10 renal

>  <RECORDED ENDPOINT>
GI50

>  <VALUE MEASURED>
4.47 µM

$$$$
>  <MOLECULE>
O=C(/C=C/c1cccnc1)c1ccccc1

>  <SUBJECT OF TEST>
TK-10 renal

>  <RECORDED ENDPOINT>
GI50

>  <VALUE MEASURED>
13.9 µM

$$$$
>  <MOLECULE>
CC12OC(C(=O)C13CC3)C1C(=O)c3cccc(O)c3C(=O)C12 (configuration not stated)

>  <SUBJECT OF TEST>
TK-10 renal

>  <RECORDED ENDPOINT>
GI50

>  <VALUE MEASURED>
8.82 µM

$$$$
>  <MOLECULE>
O=C(NCCNc1nccc(-c2c(-c3ccc(F)cc3)nc3sccn23)n1)Nc1cccc(C(F)(F)F)c1

>  <SUBJECT OF TEST>
TK-10 renal

>  <RECORDED ENDPOINT>
GI50

>  <VALUE MEASURED>
10.5 µM

$$$$
